From: patent US20260274955A1

Molecular target: anti-CD28 Fab (SEQ ID NOs: 202, 203)
Sequence (VH, as listed by the source, chain 1 of 2): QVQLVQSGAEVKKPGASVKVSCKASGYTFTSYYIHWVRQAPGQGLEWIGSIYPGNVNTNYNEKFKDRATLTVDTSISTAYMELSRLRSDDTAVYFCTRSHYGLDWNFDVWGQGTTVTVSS
Sequence (VL, as listed by the source, chain 2 of 2): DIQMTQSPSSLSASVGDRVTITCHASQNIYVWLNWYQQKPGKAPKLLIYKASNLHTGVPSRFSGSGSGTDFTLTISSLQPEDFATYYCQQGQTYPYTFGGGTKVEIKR
Test: phage ELISA, Fab on plate;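 also: ELISA of crude clonal phage supernatants on the plate, wells preloaded with CD28 antigen or only blocking buffer, captured phage read out via HRP-linked anti-M13 antibody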
Provide the reported Anti-CD28 Fab signal of each item.
Give bare numbers.

Sample answers from the record:
IN: Recorded Anti-CD28 Fab signal of QCAAGATYPWPVCL [Phage-1200] , please.
OUT: 1.13

IN: Recorded Anti-CD28 Fab signal of RCAAGFHYSWPNCF [Phage-1134] , please.
OUT: 1.41

IN: Recorded Anti-CD28 Fab signal of SCSAVFSYRWPKCL [Phage-1195] , please.
OUT: 1.18

IN: Recorded Anti-CD28 Fab signal of SCAAGATWKWPECL [Phage-1181] , please.
OUT: 1.24

IN: Recorded Anti-CD28 Fab signal of WCGVGMDWRWPECL [Phage-1122] , please.
OUT: 1.44

Lab note: each binder below needs its Anti-CD28 Fab signal filled in.
1. SCAAGAMWEWPKCF [Phage-1163]
2. TCSAGATYAWPACF [Phage-1121]
3. MCTAGFSFNWPECL [Phage-1214]
4. TCSAGATYSWPSCF [Phage-1187]
5. LCAAGFMYEWPLCF [Phage-1143]
6. TCAAGASWEWPACL [Phage-1109]

OUT:
1. 1.32
2. 1.44
3. 1.05
4. 1.21
5. 1.4
6. 1.48

Lab note: each binder below needs its Anti-CD28 Fab signal filled in.
1. SCSAGATYQWPYCF [Phage-1176]
2. RCAAGAMWTWPACF [Phage-1179]
3. SCAAGAHYKWPVCI [Phage-1100]
4. SCSAGASLQLSQCF [Phage-1129]
5. SCTAVFSYALSPCF [Phage-1219]
6. TCSAGAHYEWPKCL [Phage-1202]
7. SCADGAIWEWPWCF [Phage-1164]

OUT:
1: 1.26; 2: 1.25; 3: 1.51; 4: 1.41; 5: 0.99; 6: 1.12; 7: 1.32
